System: HT-29 (colon cancer) cells
protocol description: MTT assay, HT-29 (colon cancer) cells
Type: cell-based
test context: Homo sapiens, HT-29 cells, 72 h incubation
Each entry below lists one item and its recorded pIC50 value.
A value of pIC50 is the negative decimal logarithm of a concentration given in moles per litre.

compound: CCCCC(C)(O)/C(=C/B1OC(C)(C)C(C)(C)O1)CCC (stereo not shown)
observed result: 4.10

Continue with the next compound.
Data request, read-out pIC50, for CCC/C(=C\B1OC(C)(C)C(C)(C)O1)C(O)(c1ccccc1)C1CC1 (stereo not shown) [Compound E2] 4.07

Taken from patent US20130079305A1.
